Data provenance is ChEMBL document CHEMBL1201862.

System: SNB-19
assay protocol: NCI tumour cell line growth inhibition, 48 h
Active and inactive are the calls of the source. Rule as the data show it: active = GI50 up to about 1.1 µM and inactive = higher.
result type: GI50

Solved cases (3 shown):
# compound, target system, GI50
measured = [
    ("Cc1cccc2sc(NC(=O)c3cc([N+](=O)[O-])ccc3Cl)nc12", "SNB-19", "7.78 µM (inactive)"),
    ("CCOC(=O)NC(=O)c1cn(C2CCCCC2)c(=O)n(C)c1=O", "SNB-19", "> 100 µM (inactive)"),
    ("CN(CCNC(=O)c1n[nH]c2c1ccc1ccccc12)CCNC(=O)c1n[nH]c2c1ccc1ccccc12", "SNB-19", "1.89 µM (inactive)"),
]

Determine from records and report GI50 for CCCCCCCCCCCCCCCCOP(=O)([O-])OCC[N+](C)(C)C1CC(C)(C)N(O)C(C)(C)C1 > 100 µM (inactive)

Determine from records and report GI50 for O=C(O)c1ccc2c(c1)CC1(C2)Cc2ccccc2C1=O (configuration not stated) > 100 µM (inactive)

Determine from records and report GI50 for COc1cc(C2C(Cl)C(=O)N2NC(=O)c2ccc(NC(C)=O)cc2)ccc1O (configuration not stated) > 100 µM (inactive)

Determine from records and report GI50 for COC(=O)C1C(O)CC(c2ccccn2)N(Cc2ccccc2)C1c1ccccn1 (configuration not stated) > 100 µM (inactive)

Determine from records and report GI50 for Clc1cc(OCc2nn3c(Cc4ccccc4)nnc3s2)ccc1OCc1nn2c(Cc3ccccc3)nnc2s1 24.6 µM (inactive)
